# Subject Of Test: T1, Human EphA2 (human, UniProt P29317 24-976)
# T1 construct: Endogenous EphA2 in fresh frozen human tumor tissue sections, not a recombinant protein; also called ephrin receptor A2; hEphA2
# Assay Procedure: IHC/IF on frozen human tumor tissue: UCEC-papillary
Endpoint: IHC score
Give a plain numeric answer without units written out.

The cases that follow already have their IHC score on record.
>>> recorded_number("AB-009812 (antibody, mouse IgG2a, V domains shown, Made on a mouse IgG2a framework) VH: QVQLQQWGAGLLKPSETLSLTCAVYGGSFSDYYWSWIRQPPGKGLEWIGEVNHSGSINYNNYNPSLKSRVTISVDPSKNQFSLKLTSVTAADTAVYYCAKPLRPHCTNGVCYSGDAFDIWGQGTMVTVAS VL: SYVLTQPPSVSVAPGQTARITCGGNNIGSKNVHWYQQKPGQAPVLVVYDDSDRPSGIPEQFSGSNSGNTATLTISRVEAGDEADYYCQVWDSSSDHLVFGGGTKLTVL")
2
>>> recorded_number("AB-009815 (antibody, mouse IgG2a, V domains shown, Made on a mouse IgG2a framework) VH: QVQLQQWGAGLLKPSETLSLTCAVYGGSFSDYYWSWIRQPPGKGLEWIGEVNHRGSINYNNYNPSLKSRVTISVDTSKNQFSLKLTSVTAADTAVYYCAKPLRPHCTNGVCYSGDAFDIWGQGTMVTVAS VL: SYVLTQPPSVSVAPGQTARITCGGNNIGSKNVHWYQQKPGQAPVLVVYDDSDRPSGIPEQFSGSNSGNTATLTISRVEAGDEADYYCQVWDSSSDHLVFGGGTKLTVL")
2

// moving on: another record for IHC score
Query block: Look at this binder and give its reported IHC score. AB-009813 (antibody, mouse IgG2a, V domains shown, Made on a mouse IgG2a framework) VH: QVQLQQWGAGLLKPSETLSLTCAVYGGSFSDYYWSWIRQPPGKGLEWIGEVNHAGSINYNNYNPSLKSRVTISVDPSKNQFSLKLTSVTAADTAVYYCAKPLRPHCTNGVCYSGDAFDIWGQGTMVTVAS VL: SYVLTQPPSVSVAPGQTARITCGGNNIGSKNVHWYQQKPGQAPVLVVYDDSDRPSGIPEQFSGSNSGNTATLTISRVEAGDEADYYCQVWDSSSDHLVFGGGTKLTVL
Result block: 2
